B1: OR4K15 (parent)
chain: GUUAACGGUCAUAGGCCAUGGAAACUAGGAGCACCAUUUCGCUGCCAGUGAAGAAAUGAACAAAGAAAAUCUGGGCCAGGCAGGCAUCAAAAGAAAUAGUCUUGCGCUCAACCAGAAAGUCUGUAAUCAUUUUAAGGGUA

- Variants of: B1
- measurement.notes: self-cleavage, relative activity (ratio to wild type); higher = more cleavage; in vitro, sequencing; the parent is a self-cleaving ribozyme
quantity.measured: self-cleavage
# print the numeric value only

Study these solved cases before continuing.
variant.key	self-cleavage
C10U U87C	1.08
U70A A89U	1.74
U19A A82U	0.34
A23G A98U	0.92
A92U A118U	0.74
U100C U103C	2.89

Find the recorded self-cleavage belonging to U38G C113U and report it.
0.07

Find the recorded self-cleavage belonging to U49A U102A and report it.
0.95

Find the recorded self-cleavage belonging to A18G A62G and report it.
1.54

Find the recorded self-cleavage belonging to A51U A66G and report it.
2.03
